src = PubChem BioAssay (NCI)

System: A498 renal
Experiment: NCI-60 one-dose screen, 48 h
Conditions: 10 µM unless noted
This is part of a sample that, as a whole, favours compounds with a hit. Of some 83,000 tested, about 20% had one in any assay. Activity calls are given as the source filed them. Rule for the calls: active = growth percent below 10; inactive = the rest.
Outcome codes: active, inactive

{"columns": ["Molecule", "Assigned category"],
 "data": [
  ["CCN1C(=O)N(CC)C2NNC(Sc3c(C(=O)O)c4ccccc4n(C4CCCC4)c3=O)=NC21 (centres undefined)", "inactive"],
  ["CCCCCCn1c(O)c(N=Nc2nc(-c3cc4ccccc4oc3=O)cs2)c2ccccc21", "inactive"],
  ["C=C1CCC2C3(C)COC(c4ccc(F)cc4)OC3CCC2(C)C1C/C=C1/C(=O)OCC1O (centres undefined)", "inactive"],
  ["C=C1CC[C@@H]2[C@]3(C)COC(c4cn(-c5ccccc5)nc4-c4ccccc4)O[C@@H]3CC[C@@]2(C)[C@@H]1C/C=C1/C(=O)OC[C@H]1O (some centres undefined)", "active"]
]}
